System: P388 murine leukemia
Test: Antitumor activity against P388 murine leukemia in CDF1 mice
Assay type: in vivo
Details: administered ip, 1 x on day 1
Give measured P 388 Dose producing the maximum % T/C for each item. Keep answers brief.
One number for each entry, in mg/kg.

## Task Quick one: P 388 Dose producing the maximum % T/C of "O=[N+]([O-])[O-].O=[N+]([O-])[O-].[Ni+2].c1ccc(P(CCP(c2ccccc2)c2ccccc2)c2ccccc2)cc1.c1ccc(P(CCP(c2ccccc2)c2ccccc2)c2ccccc2)cc1" ?
## Result 50

## Task Quick one: P 388 Dose producing the maximum % T/C of "[O-][Cl+3]([O-])([O-])[O-].[O-][Cl+3]([O-])([O-])[O-].[Pd+2].c1ccc(P(CCP(c2ccccc2)c2ccccc2)c2ccccc2)cc1.c1ccc(P(CCP(c2ccccc2)c2ccccc2)c2ccccc2)cc1" ?
## Result 200

## Task Quick one: P 388 Dose producing the maximum % T/C of "[Cl-].[Cl-].[O-][Cl+3]([O-])([O-])[O-].[Rh+3].c1ccc(P(CC[As](c2ccccc2)c2ccccc2)c2ccccc2)cc1.c1ccc(P(CC[As](c2ccccc2)c2ccccc2)c2ccccc2)cc1" ?
## Result 200

## Task Quick one: P 388 Dose producing the maximum % T/C of "[Br-].[Br-].[Co+2].c1ccc(P(CCP(c2ccccc2)c2ccccc2)c2ccccc2)cc1.c1ccc(P(CCP(c2ccccc2)c2ccccc2)c2ccccc2)cc1" ?
## Result 100

## Task Quick one: P 388 Dose producing the maximum % T/C of "[I-].[I-].[Pd+2].c1ccc(P(CCP(c2ccccc2)c2ccccc2)c2ccccc2)cc1.c1ccc(P(CCP(c2ccccc2)c2ccccc2)c2ccccc2)cc1" ?
## Result 5

Moving on to another molecule below.
## Task Quick one: P 388 Dose producing the maximum % T/C of "O=S(=O)([O-])C(F)(F)F.[Rh+].c1ccc(P(CCP(c2ccccc2)c2ccccc2)c2ccccc2)cc1.c1ccc(P(CCP(c2ccccc2)c2ccccc2)c2ccccc2)cc1" ?
## Result 4

* * *

Test system: P388 murine leukemia
Test: Antitumor activity against P388 murine leukemia in CDF1 mice
Assay type: in vivo
Settings: administered ip, 1 x on day 1
Give measured P 388 Dose producing the maximum % T/C for each item. Keep answers brief.
Quote the value and follow it with the unit of measurement.

Some compounds with known P 388 Dose producing the maximum % T/C results, for comparison:
## Task Quick one: P 388 Dose producing the maximum % T/C of "[Cl-].[Cl-].[Cl-].[Rh+3].c1ccc(P(CCP(c2ccccc2)c2ccccc2)c2ccccc2)cc1.c1ccc(P(CCP(c2ccccc2)c2ccccc2)c2ccccc2)cc1" ?
## Result 50 mg/kg

## Task Quick one: P 388 Dose producing the maximum % T/C of "[O-][Cl+3]([O-])([O-])[O-].[Rh+].c1ccc(P(CCP(c2ccccc2)c2ccccc2)c2ccccc2)cc1.c1ccc(P(CCP(c2ccccc2)c2ccccc2)c2ccccc2)cc1" ?
## Result 12.5 mg/kg

## Task Quick one: P 388 Dose producing the maximum % T/C of "C(=CP(c1ccccc1)c1ccccc1)P(c1ccccc1)c1ccccc1.C(=CP(c1ccccc1)c1ccccc1)P(c1ccccc1)c1ccccc1.[Cl-].[Cl-].[Fe+2]" ?
## Result 200 mg/kg

## Task Quick one: P 388 Dose producing the maximum % T/C of "[Ir+3].[O-][Cl+3]([O-])([O-])[O-].[O-][O-].c1ccc(P(CCP(c2ccccc2)c2ccccc2)c2ccccc2)cc1.c1ccc(P(CCP(c2ccccc2)c2ccccc2)c2ccccc2)cc1" ?
## Result 200 mg/kg

Moving on to another compound below.
## Task Quick one: P 388 Dose producing the maximum % T/C of "O=[N+]([O-])[O-].O=[N+]([O-])[O-].[Co+2].c1ccc(P(CCP(c2ccccc2)c2ccccc2)c2ccccc2)cc1.c1ccc(P(CCP(c2ccccc2)c2ccccc2)c2ccccc2)cc1" ?
## Result 100 mg/kg

The reported measurements were obtained from patent US4831170A.
